# Assay Target: UniProt:P39900
# Method Summary: In vitro inhibition of proteolysis of fluorogenic peptide substrate FP-1 by MMP-12
# Format: biochemical
# Conditions: substrate FP-1 10 μM, 20 minutes at ambient temperature, compounds tested 0.3 to 30 μM
Counter-ions that a name gives are not always drawn.

{"Compound": "O=C(O)c1ccc(CNC(=O)c2cc(-c3ccc(OC(F)(F)F)cc3)cs2)nc1 [Example 45]", "Unit Descriptor": "µM", "IC50": 0.92}
{"Compound": "N#CCc1ccc(-c2ccc(-c3csc(C(=O)NCc4ccc(CC(=O)O)cc4)c3)cc2)cc1 [Example 109]", "Unit Descriptor": "µM", "IC50": 0.165}
{"Compound": "Cn1ccc(-c2ccc(-c3csc(C(=O)NCCN4CCOCC4)c3)cc2)n1 [Example 22]", "Unit Descriptor": "µM", "IC50": 0.915}
{"Compound": "CC(=O)c1ccc(-c2ccc(-c3csc(C(=O)NCc4ccc(C(=O)O)cn4)c3)cc2)cc1 [Example 135]", "Unit Descriptor": "µM", "IC50": 0.042}
{"Compound": "CC(=O)c1ccc(-c2ccc(-c3csc(C(=O)NCCN4CCOCC4)c3)cc2)cc1 [Example 72]", "Unit Descriptor": "µM", "IC50": 0.057}
{"Compound": "O=C(NCCN1CCOCC1)c1cc(-c2ccc(-c3ccc(F)cc3)cc2)cs1 [Example 73]", "Unit Descriptor": "µM", "IC50": 0.355}
{"Compound": "CC(=O)c1ccc(-c2ccc(-c3csc(C(=O)NCc4ccc(CC(=O)O)cc4)c3)cc2)cc1O [Example 113]", "Unit Descriptor": "µM", "IC50": 0.14}
{"Compound": "CS(=O)(=O)c1ccc(-c2ccc(-c3csc(C(=O)NCCN4CCOCC4)c3)cc2)cc1 [Example 75]", "Unit Descriptor": "µM", "IC50": 0.34}
{"Compound": "O=C(NC[C@H]1CC[C@H](C(=O)O)CC1)c1cc(-c2ccc(-c3ccncc3)cc2)cs1 [Example 70, hydrochloride]", "Unit Descriptor": "µM", "IC50": 0.022}
{"Compound": "O=C(NCCN1CCOCC1)c1cc(-c2ccc(-c3ccncc3)cc2)cs1 [Example 9]", "Unit Descriptor": "µM", "IC50": 0.105}
{"Compound": "CC(=O)c1ccc(-c2ccc(-c3csc(C(=O)NCc4ccc(CC(=O)O)cc4)c3)cc2)c(O)c1 [Example 117]", "Unit Descriptor": "µM", "IC50": 0.16}
{"Compound": "O=C(O)CCc1cccc(CNC(=O)c2cc(-c3ccc(OC(F)(F)F)cc3)cs2)c1 [Example 65]", "Unit Descriptor": "µM", "IC50": 0.685}
{"Compound": "O=C(O)Cc1ccc(CNC(=O)c2cc(-c3ccc(OC(F)(F)F)cc3)cs2)cc1 [Example 37]", "Unit Descriptor": "µM", "IC50": 0.427}
{"Compound": "O=C(O)Cc1ccc(CNC(=O)c2cc(-c3ccc(-c4cncnc4)cc3)cs2)cc1 [Example 111]", "Unit Descriptor": "µM", "IC50": 0.7}
{"Compound": "CCC(=O)c1ccc(-c2ccc(-c3csc(C(=O)NCc4ccc(CC(=O)O)cc4)c3)cc2)cc1 [Example 103]", "Unit Descriptor": "µM", "IC50": 0.05}
{"Compound": "O=C(NCCN1CCOCC1)c1cc(-c2ccc(-c3cccnc3)cc2)cs1 [Example 11]", "Unit Descriptor": "µM", "IC50": 0.91}

====

# Assay Target: MMP-12 (Homo sapiens)
# Method Summary: In vitro inhibition of proteolysis of fluorogenic peptide substrate FP-1 by MMP-12
# Assay type: biochemical
# Conditions: substrate FP-1 10 μM, 20 minutes at ambient temperature, compounds tested 0.3 to 30 μM
Counter-ions that a name gives are not always drawn.
List of log10(IC50) values.
Measured Property: log10(IC50) (log10 of the value in µM)

{"Molecule": "CC(=O)c1ccc(-c2ccc(-c3csc(C(=O)NC[C@H]4CC[C@H](C(=O)O)CC4)c3)cc2)cc1 [Example 123]", "Assay Target": "MMP-12 (Homo sapiens)", "Measured Value": -1.74}
{"Molecule": "O=C(NCCN1CCOCC1)c1cc(-c2ccc(C3CCCCC3)cc2)cs1 [Example 21]", "Assay Target": "MMP-12 (Homo sapiens)", "Measured Value": -0.34}
{"Molecule": "O=C(NC1CCCCC1CO)c1cc(-c2ccc(OC(F)(F)F)cc2)cs1 (centres unmarked) [Example 121]", "Assay Target": "MMP-12 (Homo sapiens)", "Measured Value": -0.14}
{"Molecule": "O=C(O)Cc1cccc(CNC(=O)c2cc(-c3ccc(OC(F)(F)F)cc3)cs2)c1 [Example 41]", "Assay Target": "MMP-12 (Homo sapiens)", "Measured Value": -0.05}
{"Molecule": "O=C(NCCN1CCOCC1)c1cc(-c2ccc(-c3ccccc3F)cc2)cs1 [Example 120]", "Assay Target": "MMP-12 (Homo sapiens)", "Measured Value": -0.18}
{"Molecule": "O=C(NC[C@H]1CC[C@H](C(=O)O)CC1)c1cc(-c2ccc(OC(F)(F)F)cc2)cs1 [Example 99, Sodium Salt]", "Assay Target": "MMP-12 (Homo sapiens)", "Measured Value": -0.35}
{"Molecule": "O=C(O)CC[C@@H]1CCC[C@@H](NC(=O)c2cc(-c3ccc(OC(F)(F)F)cc3)cs2)C1 (relative stereo) [Example 125]", "Assay Target": "MMP-12 (Homo sapiens)", "Measured Value": -0.49}
{"Molecule": "CC(=O)c1cccc(-c2ccc(-c3csc(C(=O)NCCN4CCOCC4)c3)cc2)c1 [Example 76]", "Assay Target": "MMP-12 (Homo sapiens)", "Measured Value": -0.32}

====

# Assay Target: MMP-12 (Homo sapiens, UniProt P39900)
# Sequence (P39900 106-470): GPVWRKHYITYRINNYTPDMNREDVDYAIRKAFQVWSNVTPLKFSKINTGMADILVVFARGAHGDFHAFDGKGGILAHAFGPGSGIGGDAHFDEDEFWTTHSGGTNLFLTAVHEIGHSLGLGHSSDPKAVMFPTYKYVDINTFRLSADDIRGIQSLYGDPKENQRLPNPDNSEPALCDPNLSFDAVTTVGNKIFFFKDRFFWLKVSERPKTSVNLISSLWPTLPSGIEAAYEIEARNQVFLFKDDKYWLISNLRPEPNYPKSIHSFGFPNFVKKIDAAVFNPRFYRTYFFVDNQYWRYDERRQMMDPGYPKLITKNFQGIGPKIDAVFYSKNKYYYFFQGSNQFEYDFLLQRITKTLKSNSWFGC
# Method Summary: In vitro inhibition of proteolysis of fluorogenic peptide substrate FP-1 by MMP-12
# Format: biochemical
# Conditions: substrate FP-1 10 μM, 20 minutes at ambient temperature, compounds tested 0.3 to 30 μM

{"Smiles Input": "O=C(O)Cc1ccc(CNC(=O)c2cc(-c3ccc(Oc4ccccc4)cc3)cs2)cc1", "IC50, µM": 0.5}
{"Smiles Input": "O=C(O)c1ccc(CNC(=O)c2cc(-c3ccc(OC(F)(F)F)cc3)cs2)cc1", "IC50, µM": 0.436}
{"Smiles Input": "O=C(O)Cc1ccc(CNC(=O)c2cc(-c3ccc(-c4ccc(C(=O)C5CC5)cc4)cc3)cs2)cc1", "IC50, µM": 0.05}
{"Smiles Input": "O=C(O)Cc1ccc(CNC(=O)c2cc(-c3ccc(-c4ccccc4O)cc3)cs2)cc1", "IC50, µM": 0.25}

====

# Assay Target: MMP-13 (Homo sapiens)
# Method Summary: MMP-12 test adapted to MMP-13
# Assay type: biochemical
Counter-ions that a name gives are not always drawn.
Classification by IC50 follows these ranges: low bracket = under 3 µM, middle bracket = from 3 µM up to 5 µM, high bracket = 5 µM and over

{"Compound": "O=C(NC[C@H]1CC[C@H](C(=O)O)CC1)c1cc(-c2ccc(OC(F)(F)F)cc2)cs1 [Example 35]", "Label Value": "middle bracket"}
{"Compound": "O=C(O)Cc1ccc(CNC(=O)c2cc(-c3ccc(-c4cncnc4)cc3)cs2)cc1", "Label Value": "low bracket"}
{"Compound": "O=C(NCCN1CCOCC1)c1cc(-c2ccc(-c3cccc(CO)c3)cc2)cs1", "Label Value": "middle bracket"}
{"Compound": "CS(=O)(=O)c1ccc(-c2ccc(-c3csc(C(=O)NCCN4CCOCC4)c3)cc2)cc1", "Label Value": "low bracket"}
{"Compound": "O=C(O)Cc1ccc(CNC(=O)c2cc(-c3ccc(-c4ccccc4O)cc3)cs2)cc1", "Label Value": "middle bracket"}
{"Compound": "O=C(NCCN1CCOCC1)c1cc(-c2ccc(-c3cccc(O)c3)cc2)cs1", "Label Value": "high bracket"}
{"Compound": "O=C(O)Cc1ccc(CNC(=O)c2cc(-c3ccc(Oc4ccccc4)cc3)cs2)cc1", "Label Value": "middle bracket"}
{"Compound": "O=C(O)CCc1ccc(NC(=O)c2cc(-c3ccc(OC(F)(F)F)cc3)cs2)nc1", "Label Value": "high bracket"}
{"Compound": "O=C(O)Cc1ccc(CNC(=O)c2cc(-c3ccc(OC(F)(F)F)cc3)cs2)cc1", "Label Value": "middle bracket"}
{"Compound": "O=C(NCCN1CCOCC1)c1cc(-c2ccc(-c3ccccc3F)cc2)cs1", "Label Value": "high bracket"}
{"Compound": "O=C(O)c1ccc(CNC(=O)c2cc(-c3ccc(OC(F)(F)F)cc3)cs2)cc1", "Label Value": "middle bracket"}
{"Compound": "O=C(O)c1ccc(CNC(=O)c2cc(-c3ccc(OC(F)(F)F)cc3)cs2)nc1", "Label Value": "low bracket"}
{"Compound": "CC(=O)c1cccc(-c2ccc(-c3csc(C(=O)NCCN4CCOCC4)c3)cc2)c1", "Label Value": "middle bracket"}
{"Compound": "N#CCc1ccc(-c2ccc(-c3csc(C(=O)NCc4ccc(CC(=O)O)cc4)c3)cc2)cc1", "Label Value": "low bracket"}
{"Compound": "O=C(NCC1CCC(C(=O)O)CC1)c1cc(-c2ccc(OC(F)(F)F)cc2)cs1 (stereo not drawn)", "Label Value": "high bracket"}
{"Compound": "O=C(O)Cc1ccc(NC(=O)c2cc(-c3ccc(OC(F)(F)F)cc3)cs2)cc1", "Label Value": "high bracket"}
{"Compound": "CC(=O)c1ccc(-c2ccc(-c3csc(C(=O)NCc4ccc(CC(=O)O)cc4)c3)cc2)c(O)c1", "Label Value": "low bracket"}
{"Compound": "CC(=O)c1ccc(-c2ccc(-c3csc(C(=O)NCCN4CCOCC4)c3)cc2)cc1", "Label Value": "low bracket"}
{"Compound": "O=C(NCCN1CCOCC1)c1cc(-c2ccc(-c3ccc(F)cc3)cc2)cs1", "Label Value": "low bracket"}
{"Compound": "O=C(NCc1ccc(O)c(C(=O)O)c1)c1cc(-c2ccc(OC(F)(F)F)cc2)cs1", "Label Value": "low bracket"}
{"Compound": "O=C(O)CC[C@H]1CC[C@H](NC(=O)c2cc(-c3ccc(OC(F)(F)F)cc3)cs2)CC1", "Label Value": "high bracket"}
{"Compound": "O=C(NC[C@H]1CC[C@H](C(=O)O)CC1)c1cc(-c2ccc(-c3ccncc3)cc2)cs1 [Example 70, hydrochloride]", "Label Value": "low bracket"}
{"Compound": "Cn1ccc(-c2ccc(-c3csc(C(=O)NCCN4CCOCC4)c3)cc2)n1", "Label Value": "high bracket"}
{"Compound": "CC(C)[C@H](NC(=O)c1cc(-c2ccc(OC(F)(F)F)cc2)cs1)C(=O)O", "Label Value": "high bracket"}
{"Compound": "O=C(O)CCc1cccc(CNC(=O)c2cc(-c3ccc(OC(F)(F)F)cc3)cs2)c1", "Label Value": "low bracket"}
{"Compound": "CC(=O)c1ccc(-c2ccc(-c3csc(C(=O)NC[C@H]4CC[C@H](C(=O)O)CC4)c3)cc2)cc1", "Label Value": "low bracket"}
{"Compound": "O=C(NCCN1CCOCC1)c1cc(-c2ccc(C3CCCCC3)cc2)cs1", "Label Value": "high bracket"}
{"Compound": "O=C(O)CC[C@@H]1CCC[C@@H](NC(=O)c2cc(-c3ccc(OC(F)(F)F)cc3)cs2)C1 (relative stereo)", "Label Value": "middle bracket"}
{"Compound": "O=C(NCCN1CCOCC1)c1cc(-c2ccc(N3CCCC3)cc2)cs1", "Label Value": "low bracket"}
{"Compound": "O=C(NCCN1CCOCC1)c1cc(-c2ccc(-c3cccnc3)cc2)cs1", "Label Value": "middle bracket"}
{"Compound": "O=C(NCCN1CCOCC1)c1cc(-c2ccc(-c3ccccc3)cc2)cs1", "Label Value": "high bracket"}
{"Compound": "O=C(NCCN1CCOCC1)c1cc(-c2ccc(-c3ccncc3)cc2)cs1", "Label Value": "low bracket"}
